assay: Human HepG2 cell viability assay in 384 well format; type: toxicity, cell-based; design: dose 125 nL, time 70.5 hour; concentration not given beside the values; details: HepG2 cells, read-out: Inhibition
parameterMeasured: cytotoxicity at 70.5 h

Below are worked cases with known answers.
For `CNC(=O)CN1CCOCC12CCN(C(=O)c1ccccc1)CC2` the compound record lists cytotoxicity at 70.5 h as -5.33%

For `O=C(NCc1ccccc1CN1CCCCCC1)Nc1nncs1` the compound record lists cytotoxicity at 70.5 h as -5.79%

For `NC(=O)N1CCCN(C(=O)Nc2cc(-n3cccc3)ccc2F)CC1` the compound record lists cytotoxicity at 70.5 h as -6.12%

For `O=C(O)Cc1nc2nccc(-c3ccc(F)cc3)n2n1` the compound record lists cytotoxicity at 70.5 h as 17.4%

More entries:
For `Cc1cc(CNC(=O)N2CCc3ccccc32)on1` the compound record lists cytotoxicity at 70.5 h as -1.25%

For Cc1nc(C)n(CC2CCCCN2CC(=O)Nc2nnc(C)s2)n1 (configuration not stated) the compound record lists cytotoxicity at 70.5 h as 1.52%

For Cc1noc(C)c1CNC(=O)N1CCCC(C)CC1 (configuration not stated) the compound record lists cytotoxicity at 70.5 h as -3.6%

For `CC(C)(C)C(=O)c1ccsc1NC(=O)CCNC(=O)c1ccco1` the compound record lists cytotoxicity at 70.5 h as -5.13%

For CC(NC(=O)NCC1(c2ccc(Cl)cc2)CC1)c1nncn1C (configuration not stated) the compound record lists cytotoxicity at 70.5 h as -2.86%

For Cc1nn(C)c(C)c1C1CCCN1Cc1ccc(C(N)=O)cc1 (configuration not stated) the compound record lists cytotoxicity at 70.5 h as -10.3%

For `CNC(=O)c1cccc(NC(=O)CN2CCCN(S(C)(=O)=O)CC2)c1` the compound record lists cytotoxicity at 70.5 h as -5.6%

For CCc1n[nH]c(C2CN(C(=O)c3cc(C(N)=O)cs3)CCO2)n1 (configuration not stated) the compound record lists cytotoxicity at 70.5 h as -12.1%

====

experiment: Human HepG2 cell viability assay in 384 well format; format: toxicity, cell-based; parameters: dose 125 nL, time 70.5 hour; concentration not given beside the values; settings: HepG2 cells, read-out: Inhibition
Consider the following compounds and their measured cytotoxicity at 70.5 h readings.
Hi! Could you send only the number? It should be in %, unit omitted.

Below are worked cases with known answers.
For CC(O)CN1CCN(C(=O)c2cnc(OC(C)C)c(Cl)c2)CC1 (configuration not stated) the compound record lists cytotoxicity at 70.5 h as 5

For `Cc1ccc(CN(Cc2cc(=O)n3cccc(C)c3n2)C(C)C)o1` the compound record lists cytotoxicity at 70.5 h as -14.3

For `Cc1ccc2c(c1)nc1n2[C@@H](CNC(=O)c2cccnc2)COC1` the compound record lists cytotoxicity at 70.5 h as -4.19

For Cc1cnn(CC(=O)N(CC2CN(C)CCO2)c2nccs2)c1 (configuration not stated) the compound record lists cytotoxicity at 70.5 h as -14.4

For Cc1cc(C2CCCCN2C(=O)c2cccn2C)nc2nccn12 (configuration not stated) the compound record lists cytotoxicity at 70.5 h as 4.86

More entries:
For Cc1nc(CNC2CCN(Cc3ccccc3)C2)sc1C (configuration not stated) the compound record lists cytotoxicity at 70.5 h as -4.16

For `Cc1noc(OCCOc2ccc(C#N)cc2)n1` the compound record lists cytotoxicity at 70.5 h as 5.31

For `CCC(CC)c1cc(CNC(=O)N2CCCN(C(C)=O)CC2)on1` the compound record lists cytotoxicity at 70.5 h as -3.25

For `Cc1ccc(C(=O)N(C)CCCc2cnn(C)c2)cc1N1CCNC1=O` the compound record lists cytotoxicity at 70.5 h as 46.5

For `COCc1nc2cc(NCc3ccc(C)o3)ccc2o1` the compound record lists cytotoxicity at 70.5 h as 0.17

For Cc1cc(C)n(CC2CCCN2C(=O)CCc2ccco2)n1 (configuration not stated) the compound record lists cytotoxicity at 70.5 h as -14.5

For CCN(CC)S(=O)(=O)N1CCCC(c2cccc(C(=O)O)c2)C1 (configuration not stated) the compound record lists cytotoxicity at 70.5 h as -6.99
